Molecular target: Human FXI protein (coagulation factor XI) (human, UniProt P03951 19-625)
Assay: cell-based or functional assay
outcome measure: aPTT1.5 (concentration prolonging aPTT by 50% relative to PBS), human blood (µg/mL)
Value expressed in µg/mL; do not type the unit.

Reference set, count: 2
binder | unit of measurement | quantitative result
antibody 3807 (antibody, V domains shown, Murine variable regions; also called murine antibody 3807; hybridoma clone 3807) VH: EVQLQQSGAELVRPGTSVKLSCIASGFNIKDDYMHWVKQRPEQGLEWIGWIDPENGDTEYASKFQGKATITADTSANTAYLQFSSLTSEDTAVYYCLYGNFYYFDYWGQGTTLTVSS VL: QIVLTQSPAIMSASPGEKVTMTCSASSSINYMHWYQQKPGTSPKRWIYDTSKLASGVPARFSGSGSGTSYSLTISSMEAEDAATYYCHQRSFSPLTFGAGTKLELK | µg/mL | 1.33
BAY1213790 (antibody, human IgG1, kappa, V domains shown) VH: EVQLLESGGGLVQPGGSLRLSCAASGFTFSQYGMDWVRQAPGKGLEWVSGIGPSGGSTVYADSVKGRFTISRDNSKNTLYLQMNSLRAEDTAVYYCTRGGPYYYYGMDVWGQGTTVTVSS VL: DIQMTQSPSSLSASVGDRVTITCQASQDISNYLNWYQQKPGKAPKLLIYDASNLETGVPSRFSGSGSGTDFTFTISSLQPEDIATYYCQQADSFPVTFGGGTKVEIKR | µg/mL | 2.15

Task: Item under review: antibody 1209 (0012-K3) (antibody, human IgG1, kappa, V domains shown) VH: QVQLQQSGAEVKKPGASVKVSCKVSGYTLTSILMHWVRQAPGKGLEWMGGFDPQDGETVYAQKFQGRVTMTEDTSTDTAYMELSSLRSEDTAVYYCATDPHRTWWRYFDWLYPRGMDVWGQGTTVTVSS VL: EIVMTQSPGTLSLSPGERATLSCRASQTVGKNYLAWYQQKPGQAPRLLIYEASVRALGIPDRFSGSGSGTDFTLTISRLEPEDFGTYYCQQFRSYPYTFGQGTKVEIKR . Reported aPTT1.5 (concentration prolonging aPTT by 50% relative to PBS), human blood?
Result: 4.68
